Below, each entry is listed with its recorded self-cleavage.
B1: HDV Ribozyme (parent)
chain: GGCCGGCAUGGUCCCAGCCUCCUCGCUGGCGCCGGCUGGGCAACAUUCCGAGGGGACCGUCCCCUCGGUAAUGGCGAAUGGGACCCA

Variants of: B1
Assay: self-cleavage, relative activity (ratio to wild type); higher = more cleavage; co-transcriptional

- entry-sequence: "GGCCGGCAUGGACCCAGCCUCUUCGCUGGCGCCGGCUGGGCAACAUUCCGAGGGGACCGUCCCCUCGGUAAUGGCGAAUGGGACCCA [U12A C22U]"
  self-cleavage: 0.0426
- entry-sequence: "GGCGGGCAUGGUCCCAGCCUCCUCGCUGGCGCCGGCUGGGCAACAUUCCGAGGGGAACGUCCCCUCGGUAAUGGCGAAUGGGACCCA [C4G C57A]"
  self-cleavage: 0.374
- entry-sequence: "GGCCGGCAUGGUCCCAGCCUCCUCGCUGGCGCCGGCUGGGCAACAUACCGAGGGGACCGUCCCCUCGGUAAUAGCGAAUGGGACCCA [U47A G73A]"
  self-cleavage: 0.447
- entry-sequence: "GGCCGGCAUGGUCCCAGCCUCCUCGCUGGCGCCGGCGGGGCAACAUUCCGAGGGGACCGUCCCCUCGGUAGUGGCGAAUGGGACCCA [U37G A71G]"
  self-cleavage: 0.0594
- entry-sequence: "GGCCGGCAUGGUCCCAGCCUCCUCGCUGGCGCCGGCUGGGCAACAUUCCGAGGGGACCGUCCCCUCUGUAAUGGCGUAUGGGACCCA [G67U A77U]"
  self-cleavage: 0.681
- entry-sequence: "GGCCGGCAUGGUCCCAGCCUCCUCGCUGGCGCCGGCUGGGCAACCUUCCGAGGGGACCGACCCCUCGGUAAUGGCGAAUGGGACCCA [A45C U60A]"
  self-cleavage: 0.883
- entry-sequence: "GGCCGGCAUGGUCCCAGCCUCAUCGCUGGCGCCGGCUGGGCAACAUUCCGAGGGGACCGUCCCCUCGGUAAUGGCGAAUUGGACCCA [C22A G80U]"
  self-cleavage: 0.0408
- entry-sequence: "GGCCGGCAUGGUCUCAGCCUCCCCGCUGGCGCCGGCUGGGCAACAUUCCGAGGGGACCGUCCCCUCGGUAAUGGCGAAUGGGACCCA [C14U U23C]"
  self-cleavage: 1.47
- entry-sequence: "GGCCGGCAUGGUCCCAGCCUCCUCGCUGGCGCCGGCUGGGCAACAUUCCGAGGGGCCCGUCCCCUCGGUAAUGGCGAAUGUGACCCA [A56C G81U]"
  self-cleavage: 0.277
- entry-sequence: "GGCCGGCAUGAUCCCAGCCUCCUCGCUGGAGCCGGCUGGGCAACAUUCCGAGGGGACCGUCCCCUCGGUAAUGGCGAAUGGGACCCA [G11A C30A]"
  self-cleavage: 0.106
- entry-sequence: "GGCCGGCAUGGUCCCAGCCUCCUCGCUGGCGCCGGCUGGGCAACAUUCCGUUGGGACCGUCCCCUCGGUAAUGGCGAAUGGGACCCA [A51U G52U]"
  self-cleavage: 0.889
- entry-sequence: "GGCCGGCAUGGUCCCAGCCUCCUCGCUGGCGCCGGCUGGGCAACAUUCCGAGUGGACCGUCCCCUCGGUAAUGUCGAAUGGGACCCA [G53U G74U]"
  self-cleavage: 0.701
- entry-sequence: "GGCCGGCAUGGUCCCAGCCUCCUCGCUGGCGCCGGCUGGGCAACAUUCCGAGGGGACCGUCCCCUCGGUAAUAGCGAAUGAGACCCA [G73A G81A]"
  self-cleavage: 0.176
- entry-sequence: "GGCCGGCACGGUCCCAGCCUCCUCGCUGGCGCCGGCUGGGCAACAUUCCGAGGGGACCGUCGCCUCGGUAAUGGCGAAUGGGACCCA [U9C C62G]"
  self-cleavage: 0.166
- entry-sequence: "GGCCGGCAUGGUCCCAGCCUCCUCGCUGGCGCCGACUGGGCAACAUUCCGAGGGGACCGUCCCCUCGGUAAUAGCGAAUGGGACCCA [G35A G73A]"
  self-cleavage: 0.372
- entry-sequence: "GGCCGGCAUGGUCCCAGUCUCCUCGCUGGCGCCGGCGGGGCAACAUUCCGAGGGGACCGUCCCCUCGGUAAUGGCGAAUGGGACCCA [C18U U37G]"
  self-cleavage: 0.128
- entry-sequence: "GGCCGGCAUGGUCCCAGCCUCCUCGCUGGCGCCGGCUGGGCAACGUUCCGAGGGGACCGUCCCCUCGGUAAUGGCGAAUAGGACCCA [A45G G80A]"
  self-cleavage: 0.177
- entry-sequence: "GGCCGGCAUGGUCCCAGCCUACUCGCUGGCGCCGGCUGGGCAACUUUCCGAGGGGACCGUCCCCUCGGUAAUGGCGAAUGGGACCCA [C21A A45U]"
  self-cleavage: 0.0923
- entry-sequence: "GGCCGGCAUGGUCCCAGCCUCCUCGCUGGCCCCGGCUGGGCAACACUCCGAGGGGACCGUCCCCUCGGUAAUGGCGAAUGGGACCCA [G31C U46C]"
  self-cleavage: 0.178
- entry-sequence: "GGCCGGCAUGGUCCCAGCCUCCUCGCUGGCGCCGGCUGGGCAACAUUCCGAGGGGACCGUCCCCUCGGAAAUGGCGAAUGGGACCUA [U69A C86U]"
  self-cleavage: 0.739
- entry-sequence: "GGCCGGCAUGGUCCCAGCCACCUCGCUGGCGCCGGCUGGGCAACAUUCCGAGGGGACCGUCCCCUCGGUAAUGGCGCAUGGGACCCA [U20A A77C]"
  self-cleavage: 0.151
- entry-sequence: "GGCCGGCAUGGUCCCAGCCUCCUCGCUGGCGCUGGCUGGGCAACAUUCUGAGGGGACCGUCCCCUCGGUAAUGGCGAAUGGGACCCA [C33U C49U]"
  self-cleavage: 1.06
